molecular target: Gal(b1-3)GlcNAc(b1-3)Gal(b1-4)GlcNAc; test: glycan array binding signal (z-score within array); higher = stronger binding; conditions: glycan notation: IUPAC condensed, linker removed
Many of the other results were omitted from the sample, so the strongest signals are more common in it than they were.
Measurement type: glycan array binding signal (z-score)

Binder | Measurement type | Readout number
DCL-1 (Homo sapiens), Q8IX05 (protein) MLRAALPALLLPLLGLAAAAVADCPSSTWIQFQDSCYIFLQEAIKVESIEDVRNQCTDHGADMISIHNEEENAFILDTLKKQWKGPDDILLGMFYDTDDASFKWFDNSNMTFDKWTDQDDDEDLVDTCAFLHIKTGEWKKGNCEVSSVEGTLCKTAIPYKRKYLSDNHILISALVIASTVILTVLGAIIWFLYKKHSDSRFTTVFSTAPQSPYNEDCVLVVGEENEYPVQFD | glycan array binding signal (z-score) | -0.606
EPL1 (Trichoderma atroviride), A0PCX2 (protein) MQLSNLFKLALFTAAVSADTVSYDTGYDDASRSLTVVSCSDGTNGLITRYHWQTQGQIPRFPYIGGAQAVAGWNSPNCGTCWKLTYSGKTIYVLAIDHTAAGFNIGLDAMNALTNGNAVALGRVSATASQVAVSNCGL | glycan array binding signal (z-score) | -0.163
GSL-I-B4 (Griffonia simplicifolia) (protein) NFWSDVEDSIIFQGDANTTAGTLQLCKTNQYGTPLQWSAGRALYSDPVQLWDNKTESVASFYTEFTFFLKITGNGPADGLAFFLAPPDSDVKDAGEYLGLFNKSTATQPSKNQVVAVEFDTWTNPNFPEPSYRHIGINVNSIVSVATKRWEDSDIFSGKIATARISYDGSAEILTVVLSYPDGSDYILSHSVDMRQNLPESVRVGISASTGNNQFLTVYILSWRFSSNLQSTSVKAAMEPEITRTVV | glycan array binding signal (z-score) | -0.228
Tachylectin-2 (Tachypleus tridentatus), TAL2_TACTR (protein) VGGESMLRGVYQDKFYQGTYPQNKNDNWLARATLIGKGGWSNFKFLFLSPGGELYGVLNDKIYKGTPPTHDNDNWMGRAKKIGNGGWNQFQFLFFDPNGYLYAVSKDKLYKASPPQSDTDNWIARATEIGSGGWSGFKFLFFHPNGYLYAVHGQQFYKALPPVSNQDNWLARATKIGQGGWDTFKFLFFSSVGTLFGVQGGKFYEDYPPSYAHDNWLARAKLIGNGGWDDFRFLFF | glycan array binding signal (z-score) | -0.357
